tested on: TTR; assay: TTR editing dose response (EC50, maximum editing) in primary cyno hepatocytes treated with LNP formulated U-depleted Spy Cas9 mRNA and sgRNAs; assay type: cell-based, cynomolgus monkey; conditions: LNP formulated U-depleted Spy Cas9 mRNA and human specific sgRNAs
Strand notation (5' to 3'): a small letter for the sugar, then the base; units joined by * are phosphorothioate-linked, units joined directly phosphodiester-linked; [ ] holds rarer units or linkages, { } end groups; capitals alone tell only the bases. m = 2'-O-methyl; r = 2'-OH (RNA)
Max Editing vs 90%: at or above is yes (1), below is no (0).

Determine whether measured Max Editing meets or exceeds 90% for G000488: TTR sgRNA modified sequence, Human, SEQ ID NO: 95; guide sequence of CR003346 (nucleic acid) guide: mA*mA*mA*rGrUrUrCrUrArGrArUrGrCrUrGrUrCrCrGrGrUrUrUrUrArGrAmGmCmUmAmGmAmAmAmUmAmGmCrArArGrUrUrArArArArUrArArGrGrCrUrArGrUrCrCrGrUrUrArUrCrAmAmCmUmUmGmAmAmAmAmAmGmUmGmGmCmAmCmCmGmAmGmUmCmGmGmUmGmCmU*mU*mU*mU
no (0)

Determine whether measured Max Editing meets or exceeds 90% for G000480: TTR sgRNA modified sequence, Human, SEQ ID NO: 87; guide sequence of CR003353 (nucleic acid) guide: mA*mA*mA*rGrGrCrUrGrCrUrGrArUrGrArCrArCrCrUrGrUrUrUrUrArGrAmGmCmUmAmGmAmAmAmUmAmGmCrArArGrUrUrArArArArUrArArGrGrCrUrArGrUrCrCrGrUrUrArUrCrAmAmCmUmUmGmAmAmAmAmAmGmUmGmGmCmAmCmCmGmAmGmUmCmGmGmUmGmCmU*mU*mU*mU
no (0)

Tell me whether Max Editing is at least 90% here: G000494: TTR sgRNA modified sequence, Human, SEQ ID NO: 101; guide sequence of CR003360 (nucleic acid) guide: mG*mU*mG*rArGrUrCrUrGrGrArGrArGrCrUrGrCrArUrGrUrUrUrUrArGrAmGmCmUmAmGmAmAmAmUmAmGmCrArArGrUrUrArArArArUrArArGrGrCrUrArGrUrCrCrGrUrUrArUrCrAmAmCmUmUmGmAmAmAmAmAmGmUmGmGmCmAmCmCmGmAmGmUmCmGmGmUmGmCmU*mU*mU*mU
no (0)

Say whether G000571: TTR sgRNA modified sequence, Human, SEQ ID NO: 112; guide sequence of CR005301 (nucleic acid) guide: mG*mU*mC*rArCrArGrArArArCrArCrUrCrArCrCrGrUrGrUrUrUrUrArGrAmGmCmUmAmGmAmAmAmUmAmGmCrArArGrUrUrArArArArUrArArGrGrCrUrArGrUrCrCrGrUrUrArUrCrAmAmCmUmUmGmAmAmAmAmAmGmUmGmGmCmAmCmCmGmAmGmUmCmGmGmUmGmCmU*mU*mU*mU shows Max Editing of 90% or more.
yes (1)

Form field: Max Editing at least 90%? Entry: G000481: TTR sgRNA modified sequence, Human, SEQ ID NO: 88; guide sequence of CR003345 (nucleic acid, sugars from the 5' end m3 r25 m12 r28 m32, backbone not given here; further chemistry not fully specified) guide: UCUAGAACUUUGACCAUCAGGUUUUAGAGCUAGAAAUAGCAAGUUAAAAUAAGGCUAGUCCGUUAUCAACUUGAAAAAGUGGCACCGAGUCGGUGCUUUU
yes (1)

Would you say G000483: TTR sgRNA modified sequence, Human, SEQ ID NO: 90; guide sequence of CR005298 (nucleic acid) guide: mU*mC*mC*rArCrUrCrArUrUrCrUrUrGrGrCrArGrGrArGrUrUrUrUrArGrAmGmCmUmAmGmAmAmAmUmAmGmCrArArGrUrUrArArArArUrArArGrGrCrUrArGrUrCrCrGrUrUrArUrCrAmAmCmUmUmGmAmAmAmAmAmGmUmGmGmCmAmCmCmGmAmGmUmCmGmGmUmGmCmU*mU*mU*mU shows Max Editing at minimum 90%?
no (0)

Determine whether measured Max Editing meets or exceeds 90% for G000505: TTR Cyno specific sgRNA modified sequence, SEQ ID NO: 117; guide sequence of CR005365 (nucleic acid) guide: mC*mA*mU*rUrGrArCrArGrCrArGrGrArCrUrGrCrCrUrGrUrUrUrUrArGrAmGmCmUmAmGmAmAmAmUmAmGmCrArArGrUrUrArArArArUrArArGrGrCrUrArGrUrCrCrGrUrUrArUrCrAmAmCmUmUmGmAmAmAmAmAmGmUmGmGmCmAmCmCmGmAmGmUmCmGmGmUmGmCmU*mU*mU*mU
no (0)

Answer whether Max Editing of G000500: TTR sgRNA modified sequence, Human, SEQ ID NO: 107; guide sequence of CR003337 (nucleic acid) guide: mC*mC*mA*rGrUrCrCrArGrCrArArGrGrCrArGrArGrGrGrUrUrUrUrArGrAmGmCmUmAmGmAmAmAmUmAmGmCrArArGrUrUrArArArArUrArArGrGrCrUrArGrUrCrCrGrUrUrArUrCrAmAmCmUmUmGmAmAmAmAmAmGmUmGmGmCmAmCmCmGmAmGmUmCmGmGmUmGmCmU*mU*mU*mU is greater than or equal to 90%.
no (0)

hey, is Max Editing for this one >= 90%? G000482: TTR sgRNA modified sequence, Human, SEQ ID NO: 89; guide sequence of CR003365 (nucleic acid) guide: mU*mG*mU*rArGrArArGrGrGrArUrArUrArCrArArArGrGrUrUrUrUrArGrAmGmCmUmAmGmAmAmAmUmAmGmCrArArGrUrUrArArArArUrArArGrGrCrUrArGrUrCrCrGrUrUrArUrCrAmAmCmUmUmGmAmAmAmAmAmGmUmGmGmCmAmCmCmGmAmGmUmCmGmGmUmGmCmU*mU*mU*mU
yes (1)
